The reported measurements were obtained from patent US20060189684A1.

# assayed-target: COX-1 (Homo sapiens, UniProt P23219)
# Sequence (P23219 24-599): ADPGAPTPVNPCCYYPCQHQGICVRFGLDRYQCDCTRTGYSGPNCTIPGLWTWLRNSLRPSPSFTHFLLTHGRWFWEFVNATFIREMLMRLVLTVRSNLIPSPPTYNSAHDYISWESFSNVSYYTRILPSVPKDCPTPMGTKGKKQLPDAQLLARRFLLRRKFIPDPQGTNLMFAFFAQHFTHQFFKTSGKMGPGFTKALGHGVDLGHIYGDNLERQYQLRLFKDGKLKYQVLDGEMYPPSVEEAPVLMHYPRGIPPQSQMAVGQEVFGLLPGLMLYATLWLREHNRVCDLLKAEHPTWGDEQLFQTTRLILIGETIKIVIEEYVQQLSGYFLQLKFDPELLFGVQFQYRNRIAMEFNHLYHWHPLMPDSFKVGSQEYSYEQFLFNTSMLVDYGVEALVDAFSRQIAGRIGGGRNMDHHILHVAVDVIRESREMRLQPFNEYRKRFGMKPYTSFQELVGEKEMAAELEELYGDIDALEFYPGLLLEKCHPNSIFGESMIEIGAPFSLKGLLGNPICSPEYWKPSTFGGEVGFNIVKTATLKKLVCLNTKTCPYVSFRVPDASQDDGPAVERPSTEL
# assay-explanation: COX-1 activity in human whole blood (TXB2, calcium ionophore A23187)
# measurement-conditions: 24 h at 37° C., A23187 25 μM, TXB2 by ELISA
pIC50: −log10 of the molar value.
quantity-measured: pIC50

# compound, meas-value
rows = [
    ("C[S@+]([O-])c1ccc(C2=C(c3ccccc3)C(=O)OC2)cc1 [4-[4(methylsulfinyl)phenyl]-3-phenylfuran-2(5H)-one (Enantiomer 1b)]", 4.42),
    ("C[S+]([O-])c1ccc(C2=C(c3ccccc3)C(=O)OC2)cc1 (racemic) [4-[4(methylsulfinyl)phenyl]-3-phenylfuran-2(5H)-one (racemate)]", 4.48),
    ("C[S@@+]([O-])c1ccc(C2=C(c3ccccc3)C(=O)OC2)cc1 [4-[4(methylsulfinyl)phenyl]-3-phenylfuran-2(5H)-one (Enantiomer 1a)]", 4.49),
]
